- method-description: Serum and intratumor drug concentration at experimental endpoint, SW620 model
- Format: in vivo, mice
- condition-description: Swiss Nu/nu, mouse, serum, oral, as part of ODC; 1h post-treatment at endpoint (day 19); regorafenib 30, selumetinib 0.2, vemurafenib 75, GDC-0994 10 mg/kg; read-out: concentration serum
Entries and their measured concentration at 1 h follow.
measured-endpoint: concentration at 1 h

* CNC(=O)c1cc(Oc2ccc(NC(=O)Nc3ccc(Cl)c(C(F)(F)F)c3)c(F)c2)ccn1 [regorafenib] | 6600 ng/mL
* CCCS(=O)(=O)Nc1ccc(F)c(C(=O)c2c[nH]c3ncc(-c4ccc(Cl)cc4)cc23)c1F [vemurafenib] | 1770 ng/mL
* Cn1cnc2c(F)c(Nc3ccc(Br)cc3Cl)c(C(=O)NOCCO)cc21 [selumetinib] | 280 ng/mL
